Each entry below lists one item and its recorded Bscl 2 GFP reporter induction level value.
system: Bscl2; experiment: ToxTracker genotoxicity assay, Bscl2-GFP reporter; conditions: With S9 rat liver extract, at 50% cytotoxicity, 3 h exposure and 24 h recovery
Provide a numeric answer; units are not to be included.

# count of solved cases: 3
CC(CN1CC1C)OC(=O)NCCCCCCn1c(=O)n(CCCCCCNC(=O)OC(C)CN2CC2C)c(=O)n(CCCCCCNC(=O)OC(C)CN2CC2C)c1=O (stereo not shown) | 1.2
CCCCOCC(CN1CC1C)OC(=O)NCCCCCCn1c(=O)n(CCCCCCNC(=O)OC(COCCCC)CN2CC2C)c(=O)n(CCCCCCNC(=O)OC(COCCCC)CN2CC2C)c1=O (stereo not shown) | 0.9
CCCCCCCCCC(=O)OCC(CN1CC1C)OC(=O)NCCCCCCn1c(=O)n(CCCCCCNC(=O)OC(COC(=O)CCCCCCCCC)CN2CC2C)c(=O)n(CCCCCCNC(=O)OC(COC(=O)CCCCCCCCC)CN2CC2C)c1=O (stereo not shown) | 1.1

## Input So what does the record say about Bscl 2 GFP reporter induction level for CCCCOCC(CN1CC1(C)C)OC(=O)NCCCCCCn1c(=O)n(CCCCCCNC(=O)OC(COCCCC)CN2CC2(C)C)c(=O)n(CCCCCCNC(=O)OC(COCCCC)CN2CC2(C)C)c1=O (stereo not shown) ?
## Output 1.1
